# System under test: T1, cyno pro-myostatin (cynomolgus monkey, Biotinylated for capture in the SPR assay (site not stated). The native form is a disulfide-linked homodimer, partly furin-cleaved; one chain is given.)
# T1 construct: also called proGDF8 (cynomolgus); cynomolgus monkey pro-myostatin
# Assay details: SPR Biacore 8K, biotin-antigen captured
Measurement kind: kon (M⁻¹ s⁻¹)
API: value field is a number in M⁻¹ s⁻¹; no unit string.

Consider the following illustrative entries.
Binder | Unit of measure | kon
Ab115 (antibody, human IgG4 S228P, kappa, V domains shown) VH: QVQLVQSGAEVKKPGASVKVSCKVSGYAFTNYNIHWVRQAPGKGLEWMGGINPRTGGTIYAQKFQGRVTMTEDTSTDTAYMELSSLKSEDTAVYYCAKDIYTGVAVAGSGMDYWGQGTLVTVSS VL: DIQMTQSPSSVSASVGDRVTITCRASQGISTHLAWYQQKPGKAPKLLIYGASNLESGVPSRFSGSGSGTDFTLTISSLQPEDFANYYCQQANSFPWTFGGGTKVEIKR | M⁻¹ s⁻¹ | 443000
Ab101 (antibody, human IgG4 S228P, kappa, V domains shown) VH: EVQLVESGGGLVQPGGSLRLSCAASGSAFSSYGMSWVRQAPGKGLELVASINSNGGSTYYPDSVKGRFTISRDNAKNSLYLQMNSLRAEDTAVYYCARDLLVRFLEWSHYYGMDVWGQGTTVTVSS VL: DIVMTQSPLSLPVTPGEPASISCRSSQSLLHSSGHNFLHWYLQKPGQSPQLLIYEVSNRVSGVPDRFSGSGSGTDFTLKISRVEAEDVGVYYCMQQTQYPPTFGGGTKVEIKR | M⁻¹ s⁻¹ | 4.84e+06

Input Ab133 (antibody, human IgG4 S228P, kappa, V domains shown, human IgG4 in the EM experiment; also called Ab133 Human IgG4) VH: EVQLVESGGGLVQPGGSLRLSCAASGFTFSSYGMSWVRQAPGKGLELVASFTGSGGAYYPDSVKGRFTISRDNAKNSLYLQMNSLRAEDTAVYYCARDLLIRFLEWSHYYGMDVWGQGTTVTVSS VL: DIVMTQSPLSLPVTPGEPASISCRSSQSLLHSSGHNFLHWYLQKPGQSPQLLIYEVSNRVSGVPDRFSGSGSGTDFTLKISRVEAEDVGVYYCQQQTQYPGTFGGGTKVEIKR . Output kon: 2.86e+06
